biological target: T1, human Tim-3 expressed on the cell surface (human, UniProt Q8TDQ0 22-301); test: flow cytometry, CHO-human Tim-3 cells;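 note: antibodies bound on ice for 60 min, detected by PE anti-human IgG Fc secondary, mean fluorescence intensity fit to one-site specific binding with Hill slope, parental CHO cells as nonspecific control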
T1 construct: also called hTim-3; Human Tim-3 (CHO)
reported property: pKd
// returns pKd (minus log10 of molar concentration), number only

>  <binder>
h22E11-VK1-39 × h22E11-VH5-51 (antibody, V domains shown, Humanized m22E11) VH: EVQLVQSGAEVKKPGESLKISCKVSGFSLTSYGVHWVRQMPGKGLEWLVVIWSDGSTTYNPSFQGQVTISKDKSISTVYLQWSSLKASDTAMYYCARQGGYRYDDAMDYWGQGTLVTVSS VL: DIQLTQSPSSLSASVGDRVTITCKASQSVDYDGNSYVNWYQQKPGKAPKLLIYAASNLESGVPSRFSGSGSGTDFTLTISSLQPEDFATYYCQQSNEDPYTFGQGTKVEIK

>  <pKd>
9.40

$$$$

In: Tell me measured pKd for h22E11-VK3-11 × h22E11-5-IgG-HC (antibody, V domains shown, Humanized m22E11) VH: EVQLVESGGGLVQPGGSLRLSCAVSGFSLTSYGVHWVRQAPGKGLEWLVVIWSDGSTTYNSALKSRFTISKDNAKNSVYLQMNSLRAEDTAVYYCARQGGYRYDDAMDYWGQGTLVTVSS VL: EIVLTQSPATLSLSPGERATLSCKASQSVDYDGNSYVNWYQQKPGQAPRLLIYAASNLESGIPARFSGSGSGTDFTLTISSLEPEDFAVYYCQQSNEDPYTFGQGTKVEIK please.
Out: 9.10

In: Tell me measured pKd for h22E11-5-IgG-LC × h22E11-5-IgG-HC (antibody, V domains shown, Humanized m22E11; also called h22E11-5 IgG (lot 2)) VH: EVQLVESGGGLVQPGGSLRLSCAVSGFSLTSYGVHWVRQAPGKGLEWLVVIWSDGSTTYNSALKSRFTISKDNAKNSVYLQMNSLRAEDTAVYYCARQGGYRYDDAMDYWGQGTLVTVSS VL: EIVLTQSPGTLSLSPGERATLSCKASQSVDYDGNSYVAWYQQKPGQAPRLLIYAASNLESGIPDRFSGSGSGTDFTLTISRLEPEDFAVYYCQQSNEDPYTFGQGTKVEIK please.
Out: 9.00

In: Tell me measured pKd for h22E11-5-IgG-LC × h22E11-VH1-69 (antibody, V domains shown, Humanized m22E11) VH: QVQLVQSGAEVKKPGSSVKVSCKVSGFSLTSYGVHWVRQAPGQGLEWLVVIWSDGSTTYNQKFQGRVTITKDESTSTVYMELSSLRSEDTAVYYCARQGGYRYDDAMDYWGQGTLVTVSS VL: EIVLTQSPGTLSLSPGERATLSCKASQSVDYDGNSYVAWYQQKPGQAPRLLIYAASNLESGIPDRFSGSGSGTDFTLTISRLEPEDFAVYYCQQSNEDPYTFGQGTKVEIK please.
Out: 9.05

In: Tell me measured pKd for h22E11-VK4-1 × h22E11-VH3-23 (antibody, V domains shown, Humanized m22E11) VH: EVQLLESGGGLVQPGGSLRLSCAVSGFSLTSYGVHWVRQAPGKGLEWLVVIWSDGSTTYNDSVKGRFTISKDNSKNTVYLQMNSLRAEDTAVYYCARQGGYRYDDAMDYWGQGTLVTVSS VL: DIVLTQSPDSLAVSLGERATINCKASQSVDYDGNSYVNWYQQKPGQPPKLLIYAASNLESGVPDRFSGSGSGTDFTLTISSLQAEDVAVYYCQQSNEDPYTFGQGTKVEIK please.
Out: 9.05
